B1: CCND1 (parent)
chain: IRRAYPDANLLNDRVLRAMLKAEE

Variants of: B1
METHOD DESCRIPTION: protein stability index of a GFP-peptide fusion (GPS, HEK-293T) (PSI 1-6); higher = more stable;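 further: lentivirally expressed fusions sorted by FACS into six bins by GFP to DsRed ratio, PSI derived from sequencing read proportions per bin multiplied by bin number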
CONDITIONS USED: c terminus: a fixed tail appended
Each record's protein stability index is compared with interval 1 = under 2, interval 2 = from 2 up to 3, interval 3 = 3 and over to give its class.

# bin lookup: classify `V15D` by its protein stability index
interval 3

Assign a category based on measured protein stability index for `A18R` and give only the class name.
interval 3

// bin(item) where item = `L10S`
interval 2

Band assignment needed for `V15S` please.
interval 3

Which of the defined bands does the recorded protein stability index of `A22K` sit within?
interval 3

Class for `R3A` ?
interval 2

Could you tell me which band `D7F` belongs to?
interval 1

Which class holds `R14K` ?
interval 1

Class label required: `R2N`
interval 2

Could you place `A4Y` in its proper category? Many thanks.
interval 2

For `V15F` , which protein stability index bin applies?
interval 2

Kindly state the category for this variant: `D13Q`
interval 3

Pick a category. Item: `R2I`
interval 2

Classify this variant: `N9I`
interval 2

For `L11E` , which protein stability index bin applies?
interval 3

Which band does `R3D` fall in?
interval 3

Looking at `R17I` , which class would you pick?
interval 1

Any idea which band `E24V` is in?
interval 1

Hi, small favor: classify `M19K` by its protein stability index when you get a moment.
interval 3

Would you mind sorting `D7S` into the appropriate category?
interval 2

Place this variant in its band: `N12E`
interval 3

Please classify: `L16I`
interval 2

For the record `A4I` , report the class its protein stability index corresponds to.
interval 2

Looking at `M19T` , which class would you pick?
interval 3

Band for `R3M` ?
interval 2

Band assignment needed for `R17W` please.
interval 1

Using the reported protein stability index, which band applies to `A18P` ?
interval 2

Lab note: sort `E24W` into the matching protein stability index band.
interval 1

Hi there! Could you help me figure out the category for `A22Q` please?
interval 2

Where would `R17Y` land among the classes by reported protein stability index?
interval 3

Sort `D7P` into one of the categories.
interval 2

Input `L20M` ; output its category
interval 2

The entry to classify is `Y5D` ; which class holds it?
interval 1

Band of `E24A` ?
interval 3

Hi, small favor: classify `L11F` by its protein stability index when you get a moment.
interval 1

Classify this variant: `A8S`
interval 2

Could you place `R2K` in its proper category? Many thanks.
interval 2

For the record `R17N` , report the class its protein stability index corresponds to.
interval 2
